Values compiled from patent US9458092B2.

# System: overactive bladder induced by acetic acid
# Assay: Confirmation test of elongation action of micturition interval of overactive bladder induced by acetic acid
# Format: in vivo, female SD rats
# Study Conditions: Rattus norvegicus, iv; 1 mg/kg/ml via the femoral vein; interval before administration = 100%
Reported response vs control in vivo at 1 mg/kg values follow for various compounds
Give the value in % but do not write % after it.

Would you please look over these solved cases?
Cc1ncsc1C(=O)N([C@@H]1CCc2c(F)cc(Cl)cc21)[C@@H](C(N)=O)c1ccccc1 [Example 15LP]: 188
COc1ncccc1C(=O)N([C@@H]1CCc2c(F)cc(Cl)cc21)[C@@H](C(N)=O)c1ccccc1 [Example 11]: 162
Cc1ncccc1C(=O)N([C@@H]1CCc2c(F)cc(Cl)cc21)[C@@H](C(N)=O)c1ccccc1 [Example 14LP]: 181
NC(=O)[C@@H](c1ccccc1)N(C(=O)c1cccnc1)[C@@H]1CCc2c(F)cc(Cl)cc21 [Example 2-23LP]: 205
Cc1ncccc1C(=O)N([C@@H]1CCc2c(F)cc(F)cc21)[C@@H](C(N)=O)c1ccccc1 [Example 2-131LP]: 162

Ask | What value of response vs control in vivo at 1 mg/kg has been recorded for this entry: NC(=O)[C@@H](c1ccccc1)N(C(=O)c1cccnc1N)[C@@H]1CCc2c(F)cc(Cl)cc21 [Example 13]
Reply | 184

Ask | Do the same for Cc1ncccc1C(=O)N([C@@H]1CCc2c(F)cc(Cl)cc21)[C@@H](C(N)=O)c1cccnc1 [Example 12] please
Reply | 142

Ask | Do the same for COc1ncccc1C(=O)N([C@@H]1CCc2ccc(Cl)cc21)[C@@H](C(N)=O)c1ccccc1 [Example 2-46LP] please
Reply | 186

Ask | Do the same for NC(=O)[C@@H](c1ccccc1)N(C(=O)c1cccnc1)[C@@H]1CCc2ccc(Cl)cc21 [Example 2-31LP] please
Reply | 176

Ask | Do the same for NC(=O)[C@@H](c1cccnc1)N(C(=O)c1ccccc1)[C@@H]1CCc2c(F)cc(Cl)cc21 [Example 2-66LP] please
Reply | 175

Ask | Do the same for NC(=O)[C@@H](c1cccnc1)N(C(=O)c1ccccc1O)[C@@H]1CCc2c(F)cc(Cl)cc21 [Example 19-1LP] please
Reply | 178

Ask | Do the same for NC(=O)[C@@H](c1ccccc1)N(C(=O)c1cccnc1N)[C@@H]1CCc2c(F)cc(F)cc21 [Example 1-3] please
Reply | 200

Ask | Do the same for NC(=O)[C@@H](c1ccccc1)N(C(=O)c1cccnc1)[C@@H]1CCc2c(F)cc(F)cc21 [Example 1-1] please
Reply | 209

---

# Measured Target: TRPM8 (Rattus norvegicus, UniProt Q8R455)
# Sequence (Q8R455 whole entry): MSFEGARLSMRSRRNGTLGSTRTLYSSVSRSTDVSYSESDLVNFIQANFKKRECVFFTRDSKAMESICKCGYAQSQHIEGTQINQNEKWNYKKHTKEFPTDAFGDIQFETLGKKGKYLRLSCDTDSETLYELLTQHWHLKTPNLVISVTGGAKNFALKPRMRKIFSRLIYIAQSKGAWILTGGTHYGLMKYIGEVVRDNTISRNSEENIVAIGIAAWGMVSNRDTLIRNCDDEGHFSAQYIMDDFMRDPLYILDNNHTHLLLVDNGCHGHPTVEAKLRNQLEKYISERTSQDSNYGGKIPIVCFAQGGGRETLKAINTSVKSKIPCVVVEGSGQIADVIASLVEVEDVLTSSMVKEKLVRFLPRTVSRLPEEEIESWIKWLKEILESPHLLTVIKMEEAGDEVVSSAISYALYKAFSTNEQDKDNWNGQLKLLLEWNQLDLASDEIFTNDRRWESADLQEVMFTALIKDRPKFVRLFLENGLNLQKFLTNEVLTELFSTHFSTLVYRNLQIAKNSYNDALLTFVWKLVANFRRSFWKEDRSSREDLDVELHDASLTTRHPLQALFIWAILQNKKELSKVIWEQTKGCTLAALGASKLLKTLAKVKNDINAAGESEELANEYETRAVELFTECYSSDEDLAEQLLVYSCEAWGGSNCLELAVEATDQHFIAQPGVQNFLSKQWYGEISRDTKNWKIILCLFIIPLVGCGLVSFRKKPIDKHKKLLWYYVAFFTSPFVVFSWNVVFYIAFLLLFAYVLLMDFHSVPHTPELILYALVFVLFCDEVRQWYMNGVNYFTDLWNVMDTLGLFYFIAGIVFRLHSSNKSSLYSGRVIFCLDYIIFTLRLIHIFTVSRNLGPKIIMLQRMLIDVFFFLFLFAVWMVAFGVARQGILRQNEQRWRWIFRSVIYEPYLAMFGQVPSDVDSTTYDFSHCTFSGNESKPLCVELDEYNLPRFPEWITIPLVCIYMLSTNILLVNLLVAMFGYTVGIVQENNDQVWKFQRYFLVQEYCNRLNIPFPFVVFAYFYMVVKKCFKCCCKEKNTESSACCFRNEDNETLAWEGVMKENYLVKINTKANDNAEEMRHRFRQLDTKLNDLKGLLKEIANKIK
# Assay: Confirmation test of inhibitory effects on icilin-induced wet-dog shakes
# Type: in vivo, female SD rats
# Set-up: test compounds were orally administered to female SD rats; from tissue; host or cells: whole animal (female SD rats), endogenous channel
# Study Conditions: dose 10 mg/kg orally, icilin 1 mg/kg i.p. after 1 hour, shakes counted for 5 minutes
Recorded Metric: % inhibition of Wet-Dog Shake
Express your answer as a number followed by its unit.

Would you please look over these solved cases?
NC(=O)[C@@H](c1ccccc1)N(C(=O)c1cccnc1)[C@@H]1CCc2ccc(OC(F)F)cc21 [Example 2-26LP]: 83%
Cc1ncccc1C(=O)N([C@@H]1CCc2c(F)cc(Cl)cc21)[C@@H](C(N)=O)c1cccc(N)c1 [Example 21-1]: 99%
COc1cc(F)c2c(c1)[C@H](N(C(=O)c1cccnc1)[C@@H](C(N)=O)c1ccccc1)CC2 [Example 2-39LP]: 98%
N#Cc1ccc2c(c1)[C@H](N(C(=O)c1ccccc1O)[C@@H](C(N)=O)c1ccccc1)CC2 [Example 3-2]: 73%
NC(=O)[C@@H](c1ccccc1)N(C(=O)c1cccnc1N)[C@@H]1CCc2ccc(Cl)cc21 [Example 2-33LP]: 98%

Please find the next compound below.
Ask | Which % inhibition of Wet-Dog Shake is reported with TRPM8 (Rattus norvegicus, UniProt Q8R455) for this entry: Cc1ncccc1C(=O)N([C@@H]1CCc2c(F)cc(Cl)cc21)[C@@H](C(N)=O)c1cccnc1 [Example 12] ?
Reply | 93%
